# targetOfAssay: human PD-L1 (human, UniProt Q9NZQ7 19-290)
# Sequence (Q9NZQ7 19-290): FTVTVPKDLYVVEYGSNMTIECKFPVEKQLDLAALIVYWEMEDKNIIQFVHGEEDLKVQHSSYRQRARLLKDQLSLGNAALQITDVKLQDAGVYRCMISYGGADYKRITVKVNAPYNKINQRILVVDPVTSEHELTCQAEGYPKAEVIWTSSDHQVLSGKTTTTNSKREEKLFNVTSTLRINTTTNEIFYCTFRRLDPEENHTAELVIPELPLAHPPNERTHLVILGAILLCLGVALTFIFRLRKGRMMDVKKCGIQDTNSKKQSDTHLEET
# protocol: cell-based or functional assay
Form field: Maximum (RLU), Jurkat-NFAT-hPD1 reporter (one value per entry).
All answers are understood in RLU, so give the number only.

binder: PR006248 (antibody, human IgG1, V domains shown, HCAb; human IgG1 Fc; no light chain) VH: QVQLVESGGGVVQPGMSLRLSCAASGFDFSSYGMYWVRQAPGKGQEWVASIRYTGTEKHYADSVKGRFTISRDNSKNTLYLEMNSLRVEDTAVYYCAKNRALFGVIPDDSDIRGQGTMVTVSS
Maximum (RLU), Jurkat-NFAT-hPD1 reporter: 14100
//
binder: PR002082 (antibody, human IgG1, V domains shown, HCAb; PTM variant of PR000960 (N28T, N31S); human IgG1 Fc; no light chain) VH: QVQLVESGGGVVQPGMSLRLSCAASGFTFSSYGMYWVRQAPGKGQEWVAIIWYDGTKKHYADSVKGRFTISRDNSKNTLYLEMNSLRVEDTAVYYCAKNRAIFGVVPDASDIRGQGTMVTVSS
Maximum (RLU), Jurkat-NFAT-hPD1 reporter: 12100

Value of Maximum (RLU), Jurkat-NFAT-hPD1 reporter reported for the binder PR006247 (antibody, human IgG1, V domains shown, HCAb; human IgG1 Fc; no light chain) VH: QVQLVESGGGVVQPGMSLRLSCAASGFDFSSYGMYWVRQAPGKGQEWVASIRYTGTEKHYADSVKGRFTISRDNSKNTLYLEMNSLRVEDTAVYYCAKNRALFGVIPDASDIRGQGTMVTVSS is 13400

Value of Maximum (RLU), Jurkat-NFAT-hPD1 reporter reported for the binder PR005878 (antibody, human IgG1, V domains shown, HCAb; human IgG1 Fc; no light chain) VH: QVQLVESGGGVVQPGMSLRLSCAASGFTFSSYGMYWVRQAPGKGQEWVASIRYTGTEKHYADSVKGRFTISRDNSKNTLYLEMNSLRVEDTAVYYCAKNRALFGVIPDDSDIRGQGTMVTVSS is 13400

Value of Maximum (RLU), Jurkat-NFAT-hPD1 reporter reported for the binder PR000960 (antibody, human IgG1, V domains shown, Fully human heavy-chain-only antibody (HCAb): VH fused to human IgG1 Fc; no light chain) VH: QVQLVESGGGVVQPGMSLRLSCAASGFNFSNYGMYWVRQAPGKGQEWVAIIWYDGTKKHYADSVKGRFTISRDNSKNTLYLEMNSLRVEDTAVYYCAKNRAIFGVVPDASDIRGQGTMVTVSS is 18400

Value of Maximum (RLU), Jurkat-NFAT-hPD1 reporter reported for the binder PR006246 (antibody, human IgG1, V domains shown, HCAb; human IgG1 Fc; no light chain) VH: QVQLVESGGGVVQPGMSLRLSCAASGFDFSSYGMYWVRQAPGKGQEWVASIRYTGTEKHYADSVKGRFTISRDNSKNTLYLEMNSLRVEDTAVYYCAKNRAIFGVIPDDSDIRGQGTMVTVSS is 13700
